biological target: Carbonic anhydrase 2 (Homo sapiens, UniProt P00918)
assay readout: IC50 (µM)
Give bare numbers, in µM.

So for [NH-]S(=O)(=O)C(F)(F)C(F)(F)C(F)(F)C(F)(F)C(F)(F)C(F)(F)F.[Na+] [SODIUM PERFLUOROHEXANESULFONAMIDE] , the logged IC50 turned out to be 0.122

---

Give pIC50 for every item shown.
assay: Inhibition of bovine carbonic anhydrase assessed as conversion of 4-nitrophenyl acetate to 4-nitrophnolate after 5 mins; parameters: species or system Bos taurus
Answers are plain numbers, as −log10 of the molar value.

>  <molecule>
NS(=O)(=O)C(F)(F)F [TRIFLUOROMETHANESULFONAMIDE]

>  <pIC50>
5.83

$$$$
>  <molecule>
NS(=O)(=O)C(F)(F)C(F)(F)C(F)(F)C(F)(F)F

>  <pIC50>
5.83

$$$$
>  <molecule>
NS(=O)(=O)C(F)(F)C(F)(F)C(F)(F)C(F)(F)C(F)(F)C(F)(F)C(F)(F)F

>  <pIC50>
5.76

$$$$
>  <molecule>
[NH-]S(=O)(=O)C(F)(F)C(F)(F)C(F)(F)C(F)(F)C(F)(F)C(F)(F)C(F)(F)C(F)(F)F.[Na+] [SODIUM PERFLUOROOCTANESULFONAMIDE]

>  <pIC50>
5.75

$$$$
>  <molecule>
NS(=O)(=O)CCC(F)(F)C(F)(F)C(F)(F)C(F)(F)F

>  <pIC50>
5.68

$$$$

Hey, can you go through the list below and give me pIC50 for every item?
1. NS(=O)(=O)CCC(F)(F)C(F)(F)C(F)(F)C(F)(F)C(F)(F)C(F)(F)F
2. NS(=O)(=O)C(F)(F)C(F)(F)C(F)(F)C(F)(F)S(N)(=O)=O
3. CC(=O)Nc1nnc(S(N)(=O)=O)s1 [ACETAZOLAMIDE]

1: 5.72; 2: 5.76; 3: 5.87

Hey, can you go through the list below and give me pIC50 for every item?
1. NS(=O)(=O)C(F)(F)C(F)(F)C(F)(F)C(F)(F)C(F)(F)C(F)(F)C(F)(F)C(F)(F)F
2. [NH-]S(=O)(=O)C(F)(F)C(F)(F)C(F)(F)C(F)(F)C(F)(F)C(F)(F)F.[Na+] [SODIUM PERFLUOROHEXANESULFONAMIDE]
3. NS(=O)(=O)C(F)(F)C(F)(F)C(F)(F)C(F)(F)C(F)(F)C(F)(F)F
4. NS(=O)(=O)CCC(F)(F)C(F)(F)C(F)(F)C(F)(F)C(F)(F)C(F)(F)C(F)(F)C(F)(F)F
5. NS(=O)(=O)C(F)(F)C(F)(F)C(F)(F)C(F)(F)F [SODIUM PERFLUOROBUTANESULFONAMIDE]

5.80
5.86
5.83
5.78
5.78
